Data origin: patent US20210402016A1

Assay: Biodistribution in PC-3 tumor-bearing NSG mice (Example 2)
Format: in vivo
Details: male, NSG (NOD.Cg-Prkdc^scid Il2rg^tm1Wjl/SzJ), mouse, liver, iv, total radioactivity, 120 MIN p.i.; read-out: Biodistribution LIVER, Mean
Procedure: […]. The mice were sacrificed by CO2 inhalation at 1 h, and 2 h p.i. Blood was collected by cardiac puncture. Organs/tissues were harvested, rinsed with PBS, blotted dry, and weighed. The activity in tissues was assayed by gamma counter and expressed as the percentage injected dose per gram of tissue (% ID/g).
Measured quantity: tissue uptake at 2 h (%ID/g)
The reply should be a number in %ID/g, with the unit left off.

Requested field: tissue uptake at 2 h. Item: CC(C)C[C@@H](CN1CCC[C@H]1C(N)=O)NC(=O)[C@H](Cc1c[nH]cn1)NC(=O)CNC(=O)[C@@H](NC(=O)[C@H](C)NC(=O)[C@H](Cc1c[nH]c2ccccc12)NC(=O)[C@H](CCC(N)=O)NC(=O)[C@@H](Cc1ccccc1)NC(=O)CN1CCC(NC(=O)CN2CCN(CC(=O)O)CCN(CC(=O)O)CCN(CC(=O)O)CC2)CC1)C(C)C [^68Ga-ProBOMB2, metal not drawn]
0.29

###

assay: Biodistribution in PC-3 tumor-bearing NSG mice (Example 2); format: in vivo; details: male, NSG (NOD.Cg-Prkdc^scid Il2rg^tm1Wjl/SzJ), mouse, bone, iv, total radioactivity, 120 MIN p.i.; read-out: Biodistribution BONE, Mean
Measured quantity: tissue uptake at 2 h (%ID/g)
Numeric only. Scale: %ID/g

# query: tissue uptake at 2 h of entry CC(C)C[C@@H](CN1CCC[C@H]1C(N)=O)NC(=O)[C@H](Cc1c[nH]cn1)NC(=O)CNC(=O)[C@@H](NC(=O)[C@H](C)NC(=O)[C@H](Cc1c[nH]c2ccccc12)NC(=O)[C@H](CCC(N)=O)NC(=O)[C@@H](Cc1ccccc1)NC(=O)CN1CCC(NC(=O)CN2CCN(CC(=O)O)CCN(CC(=O)O)CCN(CC(=O)O)CC2)CC1)C(C)C [^68Ga-ProBOMB2, metal not drawn]
0.06

###

Assay: Biodistribution in PC-3 tumor-bearing NRG mice (Example 1)
Type: in vivo
Conditions: male, NRG (NOD.Cg-Rag1tm1Mom Il2rgtm1Wjl/SzJ), mouse, testes, iv, 1.84 MBq, total radioactivity; 30 min p.i.; read-out: Biodistribution Testes, Mean
Protocol: The mice were sacrificed by CO2 inhalation at 30 min, 1 h, and 2 h p.i. Blood was collected by cardiac puncture. Organs/tissues were harvested, rinsed with PBS, blotted dry, and weighed. The activity in tissues was assayed by gamma counter and expressed as the percentage injected dose per gram of tissue (% ID/g).
Measured quantity: tissue uptake at 0.5 h (%ID/g)
The figure you give is taken to be in %ID/g; do not add the unit.

Could you share which tissue uptake at 0.5 h value was measured for CC(C)C[C@@H](CN1CCC[C@H]1C(N)=O)NC(=O)[C@H](Cc1c[nH]cn1)NC(=O)CNC(=O)[C@@H](NC(=O)[C@H](C)NC(=O)[C@H](Cc1c[nH]c2ccccc12)NC(=O)[C@H](CCC(N)=O)NC(=O)[C@@H](Cc1ccccc1)NC(=O)COCC(=O)Nc1ccc(CNC(=O)CN2CCN(CC(=O)O)CCN(CC(=O)O)CCN(CC(=O)O)CC2)cc1)C(C)C [^68Ga-ProBOMB1, metal not drawn] ?
0.31
